- ASSAY_SUMMARY: Dark toxicity in mouse B16-F10 cells incubated for 3 hrs by CCK-8 assay
- Assay type: cell-based
Measured IC50 at 3 h accompanies every entry in the list below.
Please state the figure in µM; there is no need to write the unit.

CCN(CC)Cc1ccc(C2=C(I)C(c3ccc(OC)cc3)=[N+]3C2=Nc2c(-c4ccc(CN(CC)CC)cc4)c(I)c(-c4ccc(OC)cc4)n2[B-]3(F)F)cc1 | 49.6

In the following, a different compound is considered.
Field request: IC50 at 3 h | item: `CCN(CC)Cc1ccc(C2=C(I)C(c3ccc(OC)cc3)=[N+]3C2=Nc2c(-c4ccccc4)c(I)c(-c4ccc(OC)cc4)n2[B-]3(F)F)cc1`
49.9

---

- ASSAY_SUMMARY: Ratio of relative degradation rate of DPBF in PBS at pH 5.2 in presence of HCl to relative degradation rate of DPBF in PBS at pH 7
- Format: physicochemical
- EXPERIMENTAL_PARAMETERS: buffer
READOUT_TYPE: Ratio
Reply with the value as a number alone.

# count of solved cases: 5
CCN(CC)Cc1ccc(C2=C(I)C(c3ccc(OC)cc3)=[N+]3C2=Nc2c(-c4ccccc4)c(I)c(-c4ccc(OC)cc4)n2[B-]3(F)F)cc1 | 1.13
CCN(CC)Cc1ccc(C2=C(I)C(c3ccc(OC)cc3)=[N+]3C2=Nc2c(-c4ccccc4)c4c(n2[B-]3(F)F)-c2ccc(OC)cc2CC4)cc1 | 1.44
CCN(CC)Cc1ccc(C2=C(Br)C(c3ccc(OC)cc3)=[N+]3C2=Nc2c(-c4ccc(CN(CC)CC)cc4)c(Br)c(-c4ccc(OC)cc4)n2[B-]3(F)F)cc1 | 1.08
COc1ccc(C2=[N+]3C(=Nc4c(-c5ccccc5)cc(-c5ccc(OC)cc5)n4[B-]3(F)F)C(c3ccccc3)=C2I)cc1 | 1.01
CCN(CC)Cc1ccc(C2=C(I)C(c3ccc(OC)cc3)=[N+]3C2=Nc2c(-c4ccc(CN(CC)CC)cc4)cc(-c4ccc(OC)cc4)n2[B-]3(F)F)cc1 | 1.36

Turning now to a further molecule:
Which Ratio reading was recorded for the molecule `CCN(CC)Cc1ccc(C2=C(I)C(c3ccc(OC)cc3)=[N+]3C2=Nc2c(-c4ccc(CN(CC)CC)cc4)c(I)c(-c4ccc(OC)cc4)n2[B-]3(F)F)cc1` ?
1.2

---

- ASSAY_SUMMARY: Dark toxicity in mouse B16-F10 cells incubated for 3 hrs by CCK-8 assay
- Assay type: cell-based
Below, each entry is listed alongside its reported IC50 at 3 h.

Recorded results for 2 compounds are shown here.
CCN(CC)Cc1ccc(C2=C(I)C(c3ccc(OC)cc3)=[N+]3C2=Nc2c(-c4ccccc4)c4c(n2[B-]3(F)F)-c2ccc(OC)cc2CC4)cc1 | > 50 µM
CCN(CC)Cc1ccc(C2=C(Br)C(c3ccc(OC)cc3)=[N+]3C2=Nc2c(-c4ccc(CN(CC)CC)cc4)c(Br)c(-c4ccc(OC)cc4)n2[B-]3(F)F)cc1 | 33.1 µM

In the following, a different compound is considered.
Which IC50 at 3 h value is on record for `CCN(CC)Cc1ccc(C2=C(I)C(c3ccc(OC)cc3)=[N+]3C2=Nc2c(-c4ccc(CN(CC)CC)cc4)cc(-c4ccc(OC)cc4)n2[B-]3(F)F)cc1` ?
> 50 µM

---

- ASSAY_SUMMARY: Stability of compound in emulsified PBS buffer under dark condition
- Format: physicochemical
READOUT_TYPE: Stability

Solved entries:
CCN(CC)Cc1ccc(C2=C(I)C(c3ccc(OC)cc3)=[N+]3C2=Nc2c(-c4ccc(CN(CC)CC)cc4)c(I)c(-c4ccc(OC)cc4)n2[B-]3(F)F)cc1 | Unstable
CCN(CC)Cc1ccc(C2=C(Br)C(c3ccc(OC)cc3)=[N+]3C2=Nc2c(-c4ccc(CN(CC)CC)cc4)c(Br)c(-c4ccc(OC)cc4)n2[B-]3(F)F)cc1 | Unstable
CCN(CC)Cc1ccc(C2=C(I)C(c3ccc(OC)cc3)=[N+]3C2=Nc2c(-c4ccc(CN(CC)CC)cc4)cc(-c4ccc(OC)cc4)n2[B-]3(F)F)cc1 | Stable
CCN(CC)Cc1ccc(C2=C(I)C(c3ccc(OC)cc3)=[N+]3C2=Nc2c(-c4ccccc4)c4c(n2[B-]3(F)F)-c2ccc(OC)cc2CC4)cc1 | Stable

Now let's try a different one.
# input compound: `CCN(CC)Cc1ccc(C2=C(I)C(c3ccc(OC)cc3)=[N+]3C2=Nc2c(-c4ccccc4)c(I)c(-c4ccc(OC)cc4)n2[B-]3(F)F)cc1` ; wanted: its Stability
Unstable
